# test_target: Recombinant human MMP-2 (Homo sapiens, UniProt P08253)
# Construct: made in house
# Sequence (P08253 110-660): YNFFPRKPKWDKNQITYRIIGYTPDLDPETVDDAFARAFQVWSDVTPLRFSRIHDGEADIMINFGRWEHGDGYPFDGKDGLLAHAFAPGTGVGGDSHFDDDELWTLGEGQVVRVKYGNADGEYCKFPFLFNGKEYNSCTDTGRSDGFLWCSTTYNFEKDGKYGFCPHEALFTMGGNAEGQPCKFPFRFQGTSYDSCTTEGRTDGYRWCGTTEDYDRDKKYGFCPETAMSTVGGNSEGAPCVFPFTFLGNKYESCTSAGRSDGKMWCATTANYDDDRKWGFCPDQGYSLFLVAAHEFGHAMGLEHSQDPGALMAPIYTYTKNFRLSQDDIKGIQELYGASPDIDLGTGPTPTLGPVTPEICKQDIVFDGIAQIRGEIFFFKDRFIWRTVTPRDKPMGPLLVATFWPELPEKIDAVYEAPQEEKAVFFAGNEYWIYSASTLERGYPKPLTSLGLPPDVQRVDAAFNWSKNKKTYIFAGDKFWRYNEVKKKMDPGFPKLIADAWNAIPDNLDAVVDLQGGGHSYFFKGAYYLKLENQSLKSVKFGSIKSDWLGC
# method_notes: biochemical
# run_parameters: fluorogenic MCA-peptide substrate, pH 7.5, room temperature; read-out: MMP-2 IC50
pIC50: −log10 of the molar value.

| molecule | pIC50 |
| --- | --- |
| O=C(c1ccc(CC2CCC2)cc1)C1CCN(c2ccc(S(=O)(=O)C3(C(=O)NO)CCN(C4CC4)CC3)cc2)CC1 [Example 196] | 6.12 |
| COCCN1CCC(C(=O)NO)(S(=O)(=O)c2ccc(N3CCC(C(=O)c4ccc(CC5CCCCC5)cc4)CC3)cc2)CC1 [Example 203] | 6.09 |
| COCCN1CCC(C(=O)NO)(S(=O)(=O)c2ccc(N3CCC(C(=O)c4ccc(CC5CCCC5)cc4)CC3)cc2)CC1 [Example 202] | 5.99 |
| C#CCN1CCC(C(=O)NO)(S(=O)(=O)c2ccc(N3CCC(C(=O)c4ccc(N(C)CC)cc4)CC3)cc2)CC1 [Example 174] | 5.97 |
| Cc1ccc(C(=O)C2CCN(c3ccc(S(=O)(=O)C4(C(=O)NO)CCN(S(C)(=O)=O)CC4)cc3)CC2)cc1C [Example 164] | 6.03 |
